# assay text: Pharmacokinetics in plasma and brain after IP dosing
# Format: in vivo
# protocol conditions: male, Sprague Dawley, rat, brain, ip, 10 mg/kg, brain, 10 mg/kg IP, read-out: T1/2 (converted)
# Experimental: Pharmacokinetics studies were carried out at WuXi Apptec, Inc. (Cranbury, NJ, USA) using standard protocols. All animal use and procedures were approved by the WuXi Apptec, Inc., IACUC. […] The bioanalytical assay provided a lower limit of quantification (LLOQ) of 1 ng/mL and an upper limit of quantification (ULOQ) of 3000 ng/mL for methylone. The plasma concentration-time data were analyzed using Phoenix WinNonlin (version 8.3) to characterize the PK properties of the analyte. […]
readout kind: half-life (min)
Please reply with the bare figure in min and do not write the unit itself.

Data request: Requested read-out: half-life. Entry: CNC(C)C(=O)c1ccc2c(c1)OCO2 (stereo not shown)
Data returned: 36.4

###

# assay text: Pharmacokinetics in plasma and brain after IP dosing
# Assay type: in vivo
# protocol conditions: male, Sprague Dawley; plasma, 15 mg/kg IP, rat
readout kind: AUC(0-t) (µg·h/mL)
Please reply with the bare figure in µg·h/mL and do not write the unit itself.

Data request: Requested read-out: AUC(0-t). Entry: CNC(C)C(=O)c1ccc2c(c1)OCO2 (stereo not shown) [methylone, 3,4-methylenedioxy-N-methylcathinone]
Data returned: 7.32

###

# assay text: Pharmacokinetics in plasma and brain after IP dosing
# Assay type: in vivo
# protocol conditions: male, Sprague Dawley; plasma, 10 mg/kg IP, rat
readout kind: Cmax (ng/mL)
Please reply with the bare figure in ng/mL and do not write the unit itself.

Data request: Requested read-out: Cmax. Entry: CNC(C)C(=O)c1ccc2c(c1)OCO2 (stereo not shown)
Data returned: 4510

###

# assay text: Pharmacokinetics in plasma and brain after IP dosing
# Assay type: in vivo
# protocol conditions: male, Sprague Dawley, rat, brain and plasma, ip, 15 mg/kg, across 5, 10, 15 mg/kg IP, read-out: brain to plasma AUC ratio
readout kind: Kp

Data request: Requested read-out: Kp. Entry: CNC(C)C(=O)c1ccc2c(c1)OCO2 (stereo not shown) [methylone, 3,4-methylenedioxy-N-methylcathinone]
Data returned: ~1.8

###

# assay text: Pharmacokinetics in plasma and brain after IP dosing
# Assay type: in vivo
# protocol conditions: male, Sprague Dawley, rat, plasma, ip, 15 mg/kg, plasma, 15 mg/kg IP, read-out: T1/2 (converted)
readout kind: half-life (min)
Please reply with the bare figure in min and do not write the unit itself.

Data request: Requested read-out: half-life. Entry: CNC(C)C(=O)c1ccc2c(c1)OCO2 (stereo not shown)
Data returned: 48.7

###

# assay text: Pharmacokinetics in plasma and brain after IP dosing
# Format: in vivo
# protocol conditions: male, Sprague Dawley, rat, plasma, ip, 15 mg/kg, across 5, 10, 15 mg/kg IP, read-out: mean residence time (MRT0–last)
readout kind: MRT last

Data request: Requested read-out: MRT last. Entry: CNC(C)C(=O)c1ccc2c(c1)OCO2 (stereo not shown)
Data returned: 42 to 67.8 min

###

# assay text: Pharmacokinetics in plasma and brain after IP dosing
# Format: in vivo
# protocol conditions: male, Sprague Dawley; plasma, 5, 10 or 15 mg/kg IP, rat
readout kind: Tmax (min)
Please reply with the bare figure in min and do not write the unit itself.

Data request: Requested read-out: Tmax. Entry: CNC(C)C(=O)c1ccc2c(c1)OCO2 (stereo not shown)
Data returned: 15

###

# assay text: Pharmacokinetics in plasma and brain after IP dosing
# Format: in vivo
# protocol conditions: male, Sprague Dawley, rat, brain, ip, 15 mg/kg, brain, 15 mg/kg IP, read-out: T1/2 (converted)
readout kind: half-life (min)
Please reply with the bare figure in min and do not write the unit itself.

Data request: Requested read-out: half-life. Entry: CNC(C)C(=O)c1ccc2c(c1)OCO2 (stereo not shown)
Data returned: 53

###

# assay text: Pharmacokinetics in plasma and brain after IP dosing
# Type: in vivo
# protocol conditions: male, Sprague Dawley, rat, brain and plasma, ip, 5 mg/kg, 5 mg/kg IP, read-out: AUC ratio (brain: plasma)
# Method: Pharmacokinetics studies were carried out at WuXi Apptec, Inc. (Cranbury, NJ, USA) using standard protocols. All animal use and procedures were approved by the WuXi Apptec, Inc., IACUC. […] The bioanalytical assay provided a lower limit of quantification (LLOQ) of 1 ng/mL and an upper limit of quantification (ULOQ) of 3000 ng/mL for methylone. The plasma concentration-time data were analyzed using Phoenix WinNonlin (version 8.3) to characterize the PK properties of the analyte. […]
readout kind: Kp
Answer as a number with no unit attached.

Data request: Requested read-out: Kp. Entry: CNC(C)C(=O)c1ccc2c(c1)OCO2 (stereo not shown) [methylone, 3,4-methylenedioxy-N-methylcathinone]
Data returned: 1.83

###

# assay text: Pharmacokinetics in plasma and brain after IP dosing
# Type: in vivo
# protocol conditions: male, Sprague Dawley, rat, plasma, ip, 5 mg/kg, plasma, 5 mg/kg IP, read-out: T1/2 (converted)
readout kind: half-life (min)
Please reply with the bare figure in min and do not write the unit itself.

Data request: Requested read-out: half-life. Entry: CNC(C)C(=O)c1ccc2c(c1)OCO2 (stereo not shown) [methylone, 3,4-methylenedioxy-N-methylcathinone]
Data returned: 35.9
